Assay: collision cross section in nitrogen (drift tube, single-field); higher = larger gas-phase ion size;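 further: chemical standards at 10 µM analysed by drift tube IMS-QTOF MS in about 3.95 torr nitrogen, mean of duplicate injections differing ≤1%, mass error below 10 ppm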
Settings: ion type: [M+H]; ion source: ESI; ion mode: Positive
Where a name gives a salt, the structure may show the parent alone.
RESULT TYPE: collision cross section in nitrogen (Å²)
Give bare numbers, in Å².

Solved cases below.
                                   compound                          result_type  measured_result
0  CCCCC(CC)COC(=O)c1ccc(N(C)C)cc1 (centres undefined)  collision cross section in nitrogen            185.2
1              Nc1nc2ccc([N+](=O)[O-])cc2s1  collision cross section in nitrogen            143.6
2                  COC(=O)Nc1nc2ccccc2[nH]1  collision cross section in nitrogen              139
3  Cc1oc2c(NC(=O)c3c(Cl)cccc3Cl)cccc2c1C(C)(C)O  collision cross section in nitrogen            186.3

Dear reader, for each entry below, please note its collision cross section in nitrogen.
1. CCN(CC)c1ccc(C=NN(c2ccccc2)c2ccccc2)cc1 [4-[(Diphenylhydrazinylidene)methyl]-N,N-diethylaniline]
2. CCCCCCCC/C=C\CCCCCCCCN [(Z)-9-Octadecenylamine]
3. CCCC(=NOCC)C1=C(O)CC(CC(C)SCC)CC1=O (centres undefined)
4. CNC1(c2ccccc2Cl)CCCCC1=O (centres undefined) [Ketamine hydrochloride]
5. Cc1cc(Cl)ccc1N=CN(C)C [Chlordimeform]

1: 200.7; 2: 180.2; 3: 181; 4: 149.4; 5: 146.4

Each recorded value in this set is attributed to the supplement of paper PMC12317010.
